system: barnyardgrass (Echinochloa crus-galli); assay: Test C postemergence, visual plant response rating; type: in vivo; conditions: Postemergence, 31 g ai/ha
Returns: string. Value is satisfied if measured Barnyardgrass plant response rating (0 to 100 scale) is below 50, and not satisfied if it is greater than or equal to it.

The following compounds have reported results that may help.
                                 smiles_str  assigned_category
0  CO/N=C(/c1cccc(Br)c1)c1c(O)c(C)nn(C)c1=O          satisfied
1  CCO/N=C(\c1c(O)c(Cl)nn(C)c1=O)c1cc(Br)cc2ccccc12      not satisfied
2  C#CCO/N=C(/c1cc(Cl)cc(Br)c1)c1c(O)c(C)nn(C)c1=O          satisfied
3  CON=C(c1cc(Cl)cc(F)c1Cl)c1c(O)c(C)nn(C)c1=O          satisfied
4  C#CCO/N=C(/c1c(O)c(C)nn(C)c1=O)c1cc(Cl)cc2ccccc12      not satisfied

# TODO verify Barnyardgrass plant response rating (0 to 100 scale) < 50 strictly for this compound: Cc1nn(C)c(=O)c(/C(=N\OC(C)C)c2cccc3cc(Cl)ccc23)c1O
satisfied

Dear reviewer, please state whether CO/N=C(/c1cccc(/C=C/Cl)c1)c1c(O)c(C)nn(C)c1=O has Barnyardgrass plant response rating (0 to 100 scale) strictly beneath 50.
satisfied

----------
tested on: barnyardgrass (Echinochloa crus-galli); test: Test A preemergence, visual plant response rating; assay type: in vivo; conditions: 500 g ai/ha Preemergence; approx. 10 days
Readout: Barnyardgrass plant response rating (0 to 100 scale)
Give bare numbers.

                                 smiles_str  reading
0  CO/N=C(/c1cccc(C)c1C)c1c(O)c(C)nn(C)c1=O       20
1    CO/N=C(\c1csc(C)c1)c1c(O)c(C)nn(C)c1=O       10

Would you mind listing Barnyardgrass plant response rating (0 to 100 scale) for each of the following compounds?
1. CO/N=C(/c1ccsc1C)c1c(O)c(C)nn(C)c1=O
2. CO/N=C(\c1c(O)c(Cl)nn(C)c1=O)c1cccc2ccccc12

0
80

----------
tested on: ragweed (common ragweed, Ambrosia artemisiifolia); assay: Test C preemergence, visual plant response rating; type: in vivo; conditions: Test C, 125 g ai/ha, 0 is no effect, 100 is complete control
// boundary case: Ragweed plant response rating (0 to 100 scale) equal to 30 maps to False; strictly smaller maps to True

Example cases with answers are listed next.
                                   molecule  assigned_category
0  CON=C(c1cccc(OCC(F)(F)F)c1)c1c(O)c(C)nn(C)c1=O [Compound 198]               True
1  C=CCON=C(c1cc(Cl)cc(Cl)c1Cl)c1c(O)c(C)nn(C)c1=O [Compound 294]              False
2  C#CCO/N=C(/c1c(O)c(C)nn(C)c1=O)c1cc(Cl)cc2ccccc12 [Compound 192]              False
3  CC(C)O/N=C(/c1c(O)cnn(C)c1=O)c1ccc(F)c2ccccc12 [Compound 302]               True
4  CO/N=C(/c1c(O)c(C)nn(C)c1=O)c1cc(SC)cc2ccccc12 [Compound 298]               True
5  C#CCO/N=C(/c1ccc(F)c(Cl)c1)c1c(O)c(C)nn(C)c1=O [Compound 229]               True
6  C#CCO/N=C(\c1ccc(F)c(Cl)c1)c1c(O)c(C)nn(C)c1=O [Compound 230]               True
7  CO/N=C(/c1ccc(F)c(Cl)c1)c1c(O)c(C)nn(C)c1=O [Compound 218]               True

I wonder whether C#CCO/N=C(/c1c(O)c(C)nn(C)c1=O)c1cccc2cc(Cl)ccc12 [Compound 242] has Ragweed plant response rating (0 to 100 scale) below 30. Can you tell?
False

Given the entry Cc1nn(C)c(=O)c(/C(=N/OCCO)c2cccc3cc(Cl)ccc23)c1O [Compound 240] , would its reported Ragweed plant response rating (0 to 100 scale) be below 30?
True

Values compiled from patent US20210045385A1.
